meta.source: patent US9249129B2

molecular target: kinases (kinome) (Homo sapiens, UniProt P48426); construct: determined in kinobeads assays with mass spectrometry detection of kinases as described previously; endogenous in cells; assay: kinobeads assay with mass spectrometry detection of kinases (kinase selectivity profile); details: PIP5K2A (Lipid Kinase), IPI00009688
Sequence (P48426 whole entry): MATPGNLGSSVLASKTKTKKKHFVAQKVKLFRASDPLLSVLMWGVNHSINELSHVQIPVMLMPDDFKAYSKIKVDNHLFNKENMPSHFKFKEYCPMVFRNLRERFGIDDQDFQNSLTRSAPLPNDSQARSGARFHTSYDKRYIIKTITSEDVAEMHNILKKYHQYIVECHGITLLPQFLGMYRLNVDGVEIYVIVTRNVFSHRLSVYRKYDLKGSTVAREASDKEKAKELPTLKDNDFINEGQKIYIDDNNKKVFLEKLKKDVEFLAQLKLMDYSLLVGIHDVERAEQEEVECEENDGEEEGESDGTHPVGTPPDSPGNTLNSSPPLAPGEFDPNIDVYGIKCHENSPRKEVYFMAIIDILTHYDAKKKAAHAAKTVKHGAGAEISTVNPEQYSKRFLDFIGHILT
Value Type: IC50

Exercise: Tell me measured IC50 for C[C@H]1COCCN1c1nc(-c2ccc(NC(=O)NC3CC3)cc2)cc(-c2cc(F)ccc2S(C)(=O)=O)n1 please.
Solution: > 10 µM

====

target: mTOR (Homo sapiens); construct: endogenous in cells; host or cells: Jurkat cells (ATCC TIB-152, clone E6-1), lysate; assay: mTOR kinobeads assay (dot blot detection); assay type: binding; conditions: Table 4, read-out: Inhibition values (IC50) mTOR
Value Type: IC50

Exercise: Name the recorded IC50 of the item C[C@H]1COCCN1c1cc(-c2cc(F)ccc2S(C)(=O)=O)nc(-c2ccc(NC(=O)NC3CC3)cc2)n1 in your answer.
Solution: 100 to 1000 nM

Exercise: Indicate its recorded IC50; the molecule in question is C[C@H]1COCCN1c1ccnc(-c2ccc(NC(=O)NC3CC3)cc2)n1
Solution: 100 to 1000 nM

Exercise: Specify IC50 for CCNC(=O)Nc1ccc(-c2cc(-c3ccccc3C(N)=O)nc(N3CCOC[C@@H]3C)n2)cc1 and stop.
Solution: 1000 to 10000 nM

Exercise: Item C[C@H]1COCCN1c1nccc(-c2ccc(NC(=O)NC3CC3)cc2)n1 : provide IC50
Solution: 1000 to 10000 nM

====

target: kinases (kinome) (Homo sapiens); construct: determined in kinobeads assays with mass spectrometry detection of kinases as described previously; endogenous in cells; experiment: kinobeads assay with mass spectrometry detection of kinases (kinase selectivity profile); conditions: JAK2 (TK), IPI00031016
Value Type: IC50

smiles_structure=C[C@H]1COCCN1c1nc(-c2ccc(NC(=O)NC3CC3)cc2)cc(-c2cc(F)ccc2S(C)(=O)=O)n1 measurement="> 10 µM"

Exercise: Return value of IC50 for input C[C@H]1COCCN1c1nc(-c2ccc(NC(=O)NC3CC3)cc2)cc(-c2cccnc2S(C)(=O)=O)n1 , no commentary.
Solution: > 10 µM

====

target: mTOR (Homo sapiens); construct: endogenous in cells; host or cells: Jurkat cells (ATCC TIB-152, clone E6-1), lysate; test: mTOR kinobeads assay (dot blot detection); assay type: binding; conditions: Table 4, read-out: Inhibition values (IC50) mTOR
Value Type: IC50

smiles_structure=CNC(=O)Nc1ccc(-c2nccc(N3CCOC[C@@H]3C)n2)cc1 value_type=IC50 measurement="1 to 10 µM"

Exercise: Quick one: give measured IC50 for CCNC(=O)Nc1ccc(-c2ccnc(N3CCOC[C@@H]3C)n2)cc1
Solution: 1 to 10 µM

Exercise: In one line, give reported IC50 of the entry C[C@H]1COCCN1c1nc(-c2ccc(NC(=O)NC3CC3)cc2)cc(-c2ccccc2S(C)(=O)=O)n1 .
Solution: 0.1 to 1 µM

Exercise: Answer with reported IC50 of C[C@H]1COCCN1c1nc(-c2ccc(NC(=O)NCC(N)=O)cc2)cc(-c2cc(F)ccc2S(C)(=O)=O)n1
Solution: 1 to 10 µM

====

target: mTOR (Homo sapiens, UniProt P42345); construct: endogenous in cells; host or cells: Jurkat cells (ATCC TIB-152, clone E6-1), lysate; assay: mTOR kinobeads assay (dot blot detection); assay type: binding; conditions: Table 2, Jurkat cell lysate, read-out: Inhibition values (IC50) mTor
pIC50: −log10 of the molar value.
# key: entry, value: pIC50

Past entries and their recorded results:
smiles_structure=CCNC(=O)Nc1ccc(-c2nccc(N3CCOC[C@@H]3C)n2)cc1 value_type=pIC50 measurement="5.00 to 6.00"
smiles_structure=C[C@H]1COCCN1c1nc(-c2ccc(NC(=O)NCC(F)F)cc2)cc(-c2cc(F)ccc2S(C)(=O)=O)n1 value_type=pIC50 measurement="6.00 to 7.00"

Exercise: For NC(=O)Nc1ccc(-c2nccc(N3CCOCC3)n2)cc1 , write its pIC50.
Solution: 5.00 to 6.00

Exercise: Give a short answer stating reported pIC50 for O=C(Nc1ccc(-c2nccc(N3CCOCC3)n2)cc1)NC1CC1 .
Solution: 6.00 to 7.00

Exercise: Return pIC50 for the following molecule: C[C@H]1COCCN1c1cc(-c2cccnc2)nc(-c2ccc(NC(=O)NC3CC3)cc2)n1
Solution: 6.00 to 7.00

Exercise: Using known records, supply pIC50 for O=C(Nc1ccc(-c2ccnc(N3CCOCC3)n2)cc1)NC1CC1
Solution: 5.00 to 6.00

Exercise: Recall and state the measured pIC50 for CCNC(=O)Nc1ccc(-c2nccc(N3CC4CCC(C3)O4)n2)cc1 .
Solution: 6.00 to 7.00
